molecular target: OCT1 Phe244Ala variant (Homo sapiens, UniProt O15245, F244A); assay: Uptake screening (transport ratio over empty vector), HEK293 cells overexpressing OCT1 Phe244Ala variant; format: cell-based; design: expressed in transfected cells; conditions: uptake ratio over empty vector, HEK293 cells overexpressing OCT1 Phe244Ala
# key: entry, value: Mean_transport_ratio_Phe244Ala
Answer with the value's number alone.

Example entries begin here.
CCCC[N+]1(C)[C@@H]2C[C@@H](OC(=O)[C@H](CO)c3ccccc3)C[C@H]1[C@@H]1O[C@@H]12 (some centres unmarked): 30.852
CC(CCc1ccc(O)cc1)NCCc1ccc(O)c(O)c1 (centres unmarked): 15.606
CC(=O)Nc1ccc(OCC(O)CNC(C)C)cc1 (centres unmarked): 1.913
CNS(=O)(=O)Cc1ccc2[nH]cc(CCN(C)C)c2c1: 37.118

**Query** Which Mean_transport_ratio_Phe244Ala is reported for this compound? OC(c1ccccc1)(c1ccccc1)C12CC[N+](CCOCc3ccccc3)(CC1)CC2
**Result** 7.391

**Query** Which Mean_transport_ratio_Phe244Ala is reported for this compound? CC[N+](C)(C)c1cccc(O)c1
**Result** 26.201

**Query** Which Mean_transport_ratio_Phe244Ala is reported for this compound? CNC(=C[N+](=O)[O-])NCCSCc1ccc(CN(C)C)o1
**Result** 11.729

**Query** Which Mean_transport_ratio_Phe244Ala is reported for this compound? COc1cc2c(cc1OC)-c1c(C)c3ccc(OC)c(OC)c3c[n+]1CC2 [Dehydrocorydaline]
**Result** 9.409

**Query** Which Mean_transport_ratio_Phe244Ala is reported for this compound? CN[C@@H]1CCc2[nH]c3ccc(C(N)=O)cc3c2C1
**Result** 10.8

**Query** Which Mean_transport_ratio_Phe244Ala is reported for this compound? COCCn1c2c([n+](Cc3cnccn3)c1C)C(=O)c1ccccc1C2=O
**Result** 16.385

**Query** Which Mean_transport_ratio_Phe244Ala is reported for this compound? Cc1ncc(C[n+]2csc(CCO)c2C)c(N)n1
**Result** 9.954

----------
# key: entry, value: relative_Phe244Ala_uptake_in%
target: OCT1 Phe244Ala variant (Homo sapiens, UniProt O15245, F244A); experiment: Uptake screening (transport ratio over empty vector), HEK293 cells overexpressing OCT1 Phe244Ala variant; format: cell-based; set-up: expressed in transfected cells; conditions: Phe244Ala uptake relative to OCT1 WT;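 further: stably transfected HEK293 cells, intracellular substrate quantified by HPLC-tandem mass spectrometry in cell lysates, uptake in HBSS+ buffer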
Quick reminder: number only, in %, skip the unit.

Example entries begin here.
COc1ccc(CC(C)(C)NC[C@H](O)c2cc(O)cc3c2OCC(=O)N3)cc1 [Olodaterol]: 139.279
CCOc1ccccc1OCCN[C@H](C)Cc1ccc(OC)c(S(N)(=O)=O)c1 [Tamsulosin]: 40.118
NCCc1ccc(O)cc1 [p-Tyramine]: 11.429
C[N@+]1(CC2CC2)CC[C@]23c4c5ccc(O)c4O[C@H]2C(=O)CC[C@@]3(O)[C@H]1C5 [Methylnaltrexone]: 139.178
NCCc1cccc(O)c1 [m-Tyramine]: 13.730
CNS(=O)(=O)Cc1ccc2[nH]cc(CCN(C)C)c2c1 [Sumatriptan]: 115.380
COc1cc(Cc2cnc(N)nc2N)cc(OC)c1OC [Trimethoprim]: 23.542
CC(C)(C)NCC(O)c1ccc(O)c(CO)c1 (stereo not shown) [Salbutamol]: 142.307

**Query** Which relative_Phe244Ala_uptake_in% is reported for this molecule? C[N+]1(CCC(C(N)=O)(c2ccccc2)c2ccccc2)CCCCC1 [Fenpiverinium]
**Result** 131.946

**Query** Which relative_Phe244Ala_uptake_in% is reported for this molecule? CNCC(O)c1ccc(O)c(OC)c1 (stereo not shown) [Metanephrine]
**Result** 38.392

----------
molecular target: OCT1 WT (Homo sapiens); assay: Uptake screening (transport ratio over empty vector), HEK293 cells overexpressing OCT1 WT; type: cell-based; design: expressed in transfected cells; details: uptake ratio over empty vector, HEK293 cells overexpressing OCT1 WT;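 further: intracellular substrate levels quantified by HPLC–tandem mass spectrometry after uptake in HBSS+ buffer at 37 °C, stable Flp-In HEK293 lines, fold change versus empty vector–transfected cells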
propertyName: Mean_transport_ratio_WT
Answer with the value's number alone.

Example entries begin here.
CN(C)c1ccc(/C=C/c2cc[n+](C)cc2)cc1: 12.491
OC(c1ccccc1)(c1ccccc1)C12CC[N+](CCOCc3ccccc3)(CC1)CC2: 6.027
COc1ccc(CC(C)(C)NC[C@H](O)c2cc(O)cc3c2OCC(=O)N3)cc1: 6.02
COc1cc2c(cc1OC)-c1cc3ccc4c(c3c[n+]1CC2)OCO4 [Epiberberine]: 22.185
N=C(N)N1CCc2ccccc2C1: 19.246
CCNCC(O)c1cccc(O)c1 (stereo not drawn): 6.81
CCOc1ccccc1OCCN[C@H](C)Cc1ccc(OC)c(S(N)(=O)=O)c1: 3.001
CNC[C@H](O)c1cccc(O)c1 [(R)-Phenylephrine]: 8.777
CN[C@@H]1CCc2[nH]c3ccc(C(N)=O)cc3c2C1: 16.171
CC[N+](CC)(CC)Cc1ccccc1: 56.17

Read the next record carefully.
**Query** Which Mean_transport_ratio_WT is reported for this compound? CC(C)(C)NCC(O)COc1cccc2c1CCC(=O)N2 (stereo not drawn)
**Result** 3.378

----------
Target: UniProt:O15245
Sequence (O15245 1-554): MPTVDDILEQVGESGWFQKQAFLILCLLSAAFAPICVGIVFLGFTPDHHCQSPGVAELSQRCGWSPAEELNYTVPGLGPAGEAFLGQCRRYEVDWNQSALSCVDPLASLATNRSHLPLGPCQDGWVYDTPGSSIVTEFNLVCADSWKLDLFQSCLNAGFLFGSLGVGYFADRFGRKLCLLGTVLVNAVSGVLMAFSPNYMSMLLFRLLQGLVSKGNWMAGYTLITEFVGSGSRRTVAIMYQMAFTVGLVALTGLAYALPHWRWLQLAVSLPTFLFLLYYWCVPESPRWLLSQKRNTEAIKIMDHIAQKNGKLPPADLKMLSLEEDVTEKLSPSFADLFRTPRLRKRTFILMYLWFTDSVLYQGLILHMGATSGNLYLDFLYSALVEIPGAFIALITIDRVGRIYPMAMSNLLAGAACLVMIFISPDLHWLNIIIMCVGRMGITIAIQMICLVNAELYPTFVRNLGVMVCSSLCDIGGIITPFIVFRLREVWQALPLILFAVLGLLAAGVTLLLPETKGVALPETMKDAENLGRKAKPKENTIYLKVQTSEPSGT
Assay: Concentration-dependent uptake kinetics, HEK293 cells overexpressing OCT1 WT
Conditions: human, HEK293 cells overexpressing OCT1 WT
propertyName: Km at 2 min (µM)
Quick reminder: number only, in µM, skip the unit.

**Query** Which Km at 2 min is reported for this compound? CN(C)C(=N)N=C(N)N
**Result** 2910

----------
# key: entry, value: Mean_transport_ratio_Phe244Ala
Target: OCT1 Phe244Ala variant (Homo sapiens, UniProt O15245, F244A)
Sequence (O15245 1-554 F244A): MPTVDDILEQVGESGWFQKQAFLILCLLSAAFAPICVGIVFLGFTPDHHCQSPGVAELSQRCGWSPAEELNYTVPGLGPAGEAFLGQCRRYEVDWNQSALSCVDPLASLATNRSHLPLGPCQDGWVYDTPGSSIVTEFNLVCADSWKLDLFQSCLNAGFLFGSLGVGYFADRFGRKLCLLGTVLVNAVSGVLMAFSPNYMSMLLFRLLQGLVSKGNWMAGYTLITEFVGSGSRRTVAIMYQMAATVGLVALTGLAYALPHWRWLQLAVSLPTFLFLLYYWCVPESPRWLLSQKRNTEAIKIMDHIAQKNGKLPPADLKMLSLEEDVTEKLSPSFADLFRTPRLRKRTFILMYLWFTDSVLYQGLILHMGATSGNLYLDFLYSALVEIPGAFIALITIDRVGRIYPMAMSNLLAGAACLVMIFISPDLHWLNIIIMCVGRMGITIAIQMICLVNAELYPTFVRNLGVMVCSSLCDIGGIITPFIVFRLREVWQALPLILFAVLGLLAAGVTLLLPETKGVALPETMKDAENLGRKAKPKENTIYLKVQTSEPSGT
Assay: Uptake screening (transport ratio over empty vector), HEK293 cells overexpressing OCT1 Phe244Ala variant
Assay type: cell-based
Set-up: expressed in transfected cells
Conditions: uptake ratio over empty vector, HEK293 cells overexpressing OCT1 Phe244Ala
Answer with the value's number alone.

Example entries begin here.
C[N+]1(C)CCN(c2ccccc2)CC1 [Dimethylphenylpiperazinium]: 24.939
COc1cc(Cc2cnc(N)nc2N)cc(OC)c1OC [Trimethoprim]: 1.519
CN(C)CCc1c[nH]c2ccc(Cn3cncn3)cc12 [Rizatriptan]: 2.714
NCC(O)c1ccccc1 (stereo not drawn) [Bisnorephedrine]: 1.345
COc1ccc2cc3[n+](cc2c1OC)CCc1cc2c(cc1-3)OCO2 [Berberine]: 7.924

**Query** Which Mean_transport_ratio_Phe244Ala is reported for this compound? C[N+]12CCC(CC1)C(OC(=O)C(O)(c1ccccc1)c1ccccc1)C2 (stereo not drawn) [Clidinium]
**Result** 34.518

**Query** Which Mean_transport_ratio_Phe244Ala is reported for this compound? CCN1CCCC1CNC(=O)c1cc(S(=O)(=O)CC)c(N)cc1OC (stereo not drawn) [Amisulpride]
**Result** 8.279

**Query** Which Mean_transport_ratio_Phe244Ala is reported for this compound? CC(C)[N+](C)(CCOC(=O)C1c2ccccc2Oc2ccccc21)C(C)C [Propanthelinbromid]
**Result** 14.937

**Query** Which Mean_transport_ratio_Phe244Ala is reported for this compound? CN1[C@@H]2CC[C@H]1C[C@@H](OC(=O)c1c[nH]c3ccccc13)C2 [Tropisetron]
**Result** 1.568
